target: Beta-secretase 1 (Homo sapiens, UniProt P56817); experiment: Inhibition of recombinant human BACE1 using (7-methoxycoumarin-4-yl)acetyl-SEVNL*DAEFRK(2,4-dinitrophenyl)-RR-NH2) as substrate at 2 uM by FRET assay
Sequence (P56817 whole entry): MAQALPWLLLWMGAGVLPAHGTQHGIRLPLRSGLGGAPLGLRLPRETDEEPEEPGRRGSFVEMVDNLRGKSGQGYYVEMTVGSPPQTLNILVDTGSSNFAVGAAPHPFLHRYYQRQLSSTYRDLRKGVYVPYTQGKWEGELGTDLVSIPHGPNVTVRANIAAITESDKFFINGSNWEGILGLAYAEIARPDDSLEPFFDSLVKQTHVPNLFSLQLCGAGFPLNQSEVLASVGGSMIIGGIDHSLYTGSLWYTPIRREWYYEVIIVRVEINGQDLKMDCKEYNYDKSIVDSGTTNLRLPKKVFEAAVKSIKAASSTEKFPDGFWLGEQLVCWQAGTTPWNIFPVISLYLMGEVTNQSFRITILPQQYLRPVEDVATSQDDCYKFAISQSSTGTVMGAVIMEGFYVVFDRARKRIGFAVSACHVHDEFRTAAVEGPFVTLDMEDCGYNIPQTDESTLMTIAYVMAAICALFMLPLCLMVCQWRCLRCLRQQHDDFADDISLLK
Would you please tag the item Y when its inhibition is 60% or above, and N when it is below?

# count of solved cases: 5
COc1cc(C(=O)N[C@@H](Cc2ccccc2)[C@H](O)C(=O)Nc2cccc(-c3nn[nH]n3)c2)nc(C(=O)NC(C)(C)c2ccccc2)c1
Y
COc1ccc([C@@H](C)NC(=O)c2cc(=O)cc(C(=O)N[C@@H](Cc3ccccc3)[C@H](O)C(=O)Nc3cccc(-c4nn[nH]n4)c3)o2)cc1
Y
C[C@@H](NC(=O)c1cc(=O)cc(C(=O)N[C@@H](Cc2ccccc2)[C@H](O)C(=O)Nc2cccc(-c3nn[nH]n3)c2)o1)c1cccc(F)c1
Y
O=C(NCc1ccccc1)c1cc(=O)cc(C(=O)N[C@@H](Cc2ccccc2)[C@H](O)C(=O)Nc2cccc(-c3nn[nH]n3)c2)o1
N
CSc1cc(C(=O)N[C@@H](Cc2ccccc2)[C@H](O)C(=O)Nc2cccc(-c3nn[nH]n3)c2)nc(C(=O)N[C@H](C)c2ccccc2)c1
Y

Here's the next entry for you.
Ask: Kindly determine if inhibition recorded for "CC[C@@H](NC(=O)c1cc(=O)cc(C(=O)N[C@@H](Cc2ccccc2)[C@H](O)C(=O)Nc2cccc(-c3nn[nH]n3)c2)o1)c1ccccc1" is above or exactly 60%.
Reply: N
